Assay: blockers of ER-stress CHOP reporter expression – cell-based, unfolded protein response, luciferase reporter, primary screen (AID 2732)
Conditions: CHO-K1 CHOP-promoter luciferase, tunicamycin-induced, 15-18 h; at 10 µM; hits give high values
The whole screen tested about 220,000 compounds, of which about 8,200 (3.7%) were called active. Shown is part of a subset that was picked to be rich in actives.
Classification field: TRUE = inhibition at or over 10%; FALSE = inhibition under 10%.

Confirm if inhibition reported for the compound COc1ccc(C2c3ccc(O)cc3Oc3ncn(CCCO)c(=N)c32)cc1OC (stereo unspecified) is 10% or above.
TRUE

Confirm if inhibition reported for the compound O=c1[nH]c(SCc2cccc(F)c2)nc2ccccc12 is 10% or above.
FALSE

Confirm if inhibition reported for the compound CCN1CCN(c2nc(Nc3cccc(F)c3)nc(N)c2[N+](=O)[O-])CC1 is 10% or above.
FALSE

Confirm if inhibition reported for the compound N#CCC(=O)N/N=C/c1cn(Cc2ccc3ccccc3c2)c2ccccc12 is 10% or above.
FALSE

Confirm if inhibition reported for the compound Nc1ccccc1SC(C[N+](=O)[O-])c1ccccc1 (stereo unspecified) is 10% or above.
TRUE

Confirm if inhibition reported for the compound COc1ccc2c(c1)c1ncn(Cc3ccccn3)c(=O)c1n2C is 10% or above.
TRUE

* * *

Test: blockers of ER-stress CHOP reporter expression – cell-based, unfolded protein response, luciferase reporter, primary screen (AID 2732)
Conditions: CHO-K1 CHOP-promoter luciferase, tunicamycin-induced, 15-18 h; at 10 µM
The campaign covered roughly 220,000 compounds. About 8,200 (3.7%) were called active.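 Rule for the calls: active = compounds that reduced the stress-induced luciferase reporter signal by more than about 70% of percent inhibition (limit read from the data); inactive = the rest.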 The list comes from a sample in which actives are over-represented; it also holds close analogues and randomly drawn compounds.
Respond with a class label; see T for active, F for inactive

For COC(=O)[C@H](CC(C)C)NC(=O)N1CCCCC1C (stereo partly specified) , what call appears in the results of this test?
F

For O=C(NC(=S)Nc1cccc2c(O)cccc12)c1cccc(Br)c1 , what call appears in the results of this test?
F

For COC(=O)c1ccc(Oc2nc(NC(C)C)nc(SC)n2)cc1 , what call appears in the results of this test?
F

For O=C(COc1ccc(Cl)cc1)N1CCN(S(=O)(=O)c2ccc(Cl)cc2)CC1 , what call appears in the results of this test?
F

For CCC(=O)c1ccc(OCC(O)CN2CC(C)OC(C)C2)cc1 (stereo unspecified) , what call appears in the results of this test?
F

For COC(=O)c1ccc(Oc2nc(Nc3ccc(F)cc3)nc(N3CCCC3)n2)cc1 , what call appears in the results of this test?
T

For O=C(COc1ccc(Cl)cc1)N1CCN(c2cccc(C(F)(F)F)c2)CC1 , what call appears in the results of this test?
T

For CC1=C/C(=N\S(=O)(=O)c2ccccc2)C(C(C)C)=CC1=O , what call appears in the results of this test?
F

For Cc1nc(C(=O)N2CCCC(C(=O)c3ccc(Cl)cc3)C2)cs1 (stereo unspecified) , what call appears in the results of this test?
F

For CCNc1nc(Oc2ccc(C(=O)OC)cc2)nc(N2CCOCC2)n1 , what call appears in the results of this test?
F

For CCOC(=O)C1(S(=O)(=O)c2ccccc2)CCN(Cc2ccccc2)CC1 , what call appears in the results of this test?
F
